Data origin: patent US20140335107A1

# Measured on: T1, extracellular domain of human CD79b (huCD79becd) (human, UniProt P40259 29-159)
# T1 construct: expressed in CHO cells
# T1 sequence: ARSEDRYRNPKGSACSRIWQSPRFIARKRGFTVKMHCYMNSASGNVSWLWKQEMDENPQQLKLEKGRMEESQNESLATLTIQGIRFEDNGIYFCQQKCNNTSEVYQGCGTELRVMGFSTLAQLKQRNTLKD
# Experiment summary: phage selection, Fab on phage
Readout label: binding result

Binder	Value measured
huMA79b graft variant with HVR-L2 of SEQ ID NO: 26 (Fab, name in Kabat numbering, V domains shown, Fab on phage; also called L2-29 mutation) VH: EVQLVESGGGLVQPGGSLRLSCAASGYTFSSYWIEWVRQAPGKGLEWVGEILPGGGDTNYNEIFKGRFTISADTSKNTAYLQMNSLRAEDTAVYYCTRRVPVYFDYWGQGTLVTVSS VL: DIQMTQSPSSLSASVGDRVTITCKASQSVDYDGDSFLNWYQQKPGKAPKLLIYAARYLKRGVPSRFSGSGSGTDFTLTISSLQPEDFATYYCQQSNEDPLTFGQGTKVEIKR	binds
huMA79b graft variant with HVR-L2 of SEQ ID NO: 19 (Fab, name in Kabat numbering, V domains shown, Fab on phage) VH: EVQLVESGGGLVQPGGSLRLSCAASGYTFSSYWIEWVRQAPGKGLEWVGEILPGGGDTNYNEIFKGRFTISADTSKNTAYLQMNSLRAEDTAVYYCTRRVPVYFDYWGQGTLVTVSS VL: DIQMTQSPSSLSASVGDRVTITCKASQSVDYDGDSFLNWYQQKPGKAPKLLIYAASNLKSGVPSRFSGSGSGTDFTLTISSLQPEDFATYYCQQSNEDPLTFGQGTKVEIKR	binds
huMA79b graft variant with HVR-H1 of SEQ ID NO: 57 (huMA79b H1-6) (Fab, V domains shown, Fab on phage; also called H1-6 mutation) VH: EVQLVESGGGLVQPGGSLRLSCAASGYPFTRYWINWVRQAPGKGLEWVGEILPGGGDTNYNEIFKGRFTISADTSKNTAYLQMNSLRAEDTAVYYCTRRVPVYFDYWGQGTLVTVSS VL: DIQMTQSPSSLSASVGDRVTITCKASQSVDYDGDSFLNWYQQKPGKAPKLLIYAASNLESGVPSRFSGSGSGTDFTLTISSLQPEDFATYYCQQSNEDPLTFGQGTKVEIK	binds
